# Test system: RXF 393 renal
# Assay Comment: NCI tumour cell line growth inhibition, 48 h
TGI for assorted compounds

[
  {
    "Compound": "NCCN.O=C([O-])CN1CCOCC1.[OH-].[Pt+4]",
    "TGI": "> 100 µM"
  },
  {
    "Compound": "Cc1n(Cc2ccccc2)nc2sc(N)n[n+]12",
    "TGI": "> 100 µM"
  },
  {
    "Compound": "O=c1oc2c(Cl)cc(Cl)cc2cc1C1=CSC2=NCCN12",
    "TGI": "> 100 µM"
  },
  {
    "Compound": "CC(=O)OC(C)(C)CCC(=O)[C@](C)(O)[C@H]1[C@H](O)C[C@@]2(C)[C@@H]3CCc4c(cc(OC5OC(CO)C(O)C(O)C5O)c(O)c4C)C3(C)C(=O)C[C@]12C (some centres undefined)",
    "TGI": "> 100 µM"
  },
  {
    "Compound": "Cc1nn(-c2ccc([N+](=O)[O-])cc2)c2ncnc(N/N=C/c3ccccc3O)c12",
    "TGI": "1.62 µM"
  },
  {
    "Compound": "Cc1cn2c(/C=C3/C(=O)Nc4ccc(O)cc43)c(C)nc2s1",
    "TGI": "> 72.5 µM"
  },
  {
    "Compound": "COc1ccc(/C=C2\\C[C@H]3[C@@H]4CCC5=CC(=O)CC[C@]5(C)[C@H]4CC[C@]3(C)C2=O)cc1OC",
    "TGI": "> 100 µM"
  },
  {
    "Compound": "ClCCCCCc1c2nc(c(CCCCCCl)c3ccc([nH]3)c(CCCCCCl)c3ccc([nH]3)c(CCCCCCl)c3nc1C=C3)C=C2",
    "TGI": "> 100 µM"
  },
  {
    "Compound": "Cc1ccc(-c2nc3nc(-c4ccccc4)nc(N4CCNCC4)c3o2)cc1",
    "TGI": "2.97 µM"
  }
]
